Target: hCA II (Homo sapiens, UniProt P00918)
Measurement name: pKi
Field pKi (float): negative decimal logarithm of the concentration in molar.

Which measured pKi belongs to Nc1cc(C(Cl)=C(Cl)Cl)c(S(N)(=O)=O)cc1S(N)(=O)=O [Clorsulon] , tested on hCA II (Homo sapiens, UniProt P00918)?
7.23

---

Target: VhCAβ (Vibrio cholerae, UniProt A0A086SLX8)
Sequence (A0A086SLX8 entry or part of it): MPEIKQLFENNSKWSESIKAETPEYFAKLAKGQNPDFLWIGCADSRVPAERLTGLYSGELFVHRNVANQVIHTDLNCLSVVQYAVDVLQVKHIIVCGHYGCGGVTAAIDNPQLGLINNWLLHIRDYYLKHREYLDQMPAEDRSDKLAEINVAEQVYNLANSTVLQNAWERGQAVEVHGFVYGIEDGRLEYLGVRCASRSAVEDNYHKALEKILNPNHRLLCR
Measurement name: Ki (nM)
Quick reminder: number only, in nM, skip the unit.

Which measured Ki belongs to Nc1cc(C(Cl)=C(Cl)Cl)c(S(N)(=O)=O)cc1S(N)(=O)=O [Clorsulon] , tested on VhCAβ (Vibrio cholerae, UniProt A0A086SLX8)?
906
